Target: RUNX1 S114L (Homo sapiens, UniProt Q01196 1-181, S114L)
Sequence (Q01196 1-181 S114L): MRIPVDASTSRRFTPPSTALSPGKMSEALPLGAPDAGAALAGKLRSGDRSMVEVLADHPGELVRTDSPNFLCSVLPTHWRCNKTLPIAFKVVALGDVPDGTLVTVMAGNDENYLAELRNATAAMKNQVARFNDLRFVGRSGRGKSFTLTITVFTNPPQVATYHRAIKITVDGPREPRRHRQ
Experiment: ITC; without CBFβ; ITC: 20 uM RUNX1 in cell, 100 uM DNA in syringe, 10 mM HEPES-NaOH pH 7.5, 180 mM NaCl, 0.005% Tween 20; temperature stated as 277 K (Methods) but 25 °C (Results)
Settings: protein: recombinant; tags: N-terminal His6; (21 bp)
measurement kind: Kd
Form entry: enter the amount, then its unit.

Recorded result, CSF-1R promoter 21 bp DNA (dsDNA) DNA 1: CAAACTCTGTGGTTGCCTTGC DNA 2: GCAAGGCAACCACAGAGTTTG , Kd: 700 nM
